# System: SNU-5 (Gastric Carcinoma)
# experiment-notes: combination Emax (second highest fraction inhibited in the dose matrix, 72 h); higher = more inhibition; extreme values may be limits of the assay
Could you please report measured combination Emax for the items listed next?
Numbers only.

Some compounds with recorded combination Emax:
[[record]]
compound = "Cc1cc2ncnn2cc1Nc1ncc2c(n1)n(C1CCOCC1)c(=O)n2C [AZD7648] + CCN(CCO)CCCOc1ccc2c(Nc3cc(CC(=O)Nc4cccc(F)c4)[nH]n3)ncnc2c1 [AZD2811] (first compound max 10 µM, 7x7, partner max 1 µM)"
recorded_number = 0.354

[[record]]
compound = "CN(C)CCCOc1ccc(-c2ccc3ncc4c(c3c2)n(C2CCOCC2)c(=O)n4C)cn1 [AZD0156] + C=CCn1c(=O)c2cnc(Nc3ccc(N4CCN(C)CC4)cc3)nc2n1-c1cccc(C(C)(C)O)n1 [AZD1775] (first compound max 1 µM, partner max 1 µM)"
recorded_number = 0.56

[[record]]
compound = "Cc1c2c(nn1C)CSCc1cc(n(C)n1)CSc1cc(c3ccccc3c1)OCCCc1c(C(=O)O)n(C)c3c-2c(Cl)ccc13 [AZD5991] + Cn1cnc2c(F)c(Nc3ccc(Br)cc3Cl)c(C(=O)NOCCO)cc21 [Selumetinib] (first compound max 1 µM, 7x7, partner max 3 µM)"
recorded_number = 0.495


Lab note: measured combination Emax of Cc1c2c(nn1C)CSCc1cc(n(C)n1)CSc1cc(c3ccccc3c1)OCCCc1c(C(=O)O)n(C)c3c-2c(Cl)ccc13 [AZD5991] + Cc1cc2ncnn2cc1Nc1ncc2c(n1)n(C1CCOCC1)c(=O)n2C [AZD7648] (first compound max 1 µM, 7x7, partner max 10 µM) was 0.347

----------
Could you please report measured combination Emax for the items listed next?
# Tested on: AGS (Gastric Carcinoma)
# experiment-notes: combination Emax (second highest fraction inhibited in the dose matrix, 72 h); higher = more inhibition; extreme values may be limits of the assay
Numbers only.

Some compounds with recorded combination Emax:
[[record]]
compound = "CC(=O)c1c(C)c2cnc(Nc3ccc(N4CCNCC4)cn3)nc2n(C2CCCC2)c1=O [Palbociclib] + Cn1cnc2c(F)c(Nc3ccc(Br)cc3Cl)c(C(=O)NOCCO)cc21 [Selumetinib] (first compound max 10 µM, 7x7, partner max 10 µM)"
recorded_number = 0.906

[[record]]
compound = "NC1(C(=O)N[C@@H](CCO)c2ccc(Cl)cc2)CCN(c2ncnc3[nH]ccc23)CC1 [Capivasertib] + C[C@@H]1COCCN1C2=NC(=NC(=C2)C3(CC3)[S@](=N)(=O)C)C4=C5C=CNC5=NC=C4 [AZD6738] (first compound max 10 µM, 7x7, partner max 10 µM)"
recorded_number = 0.837

[[record]]
compound = "COc1cccc(OCCCN)c1-c1cc(Nc2cnc(C#N)cn2)n[nH]1 [Prexasertib] + C=CCn1c(=O)c2cnc(Nc3ccc(N4CCN(C)CC4)cc3)nc2n1-c1cccc(C(C)(C)O)n1 [AZD1775] (first compound max 1 µM, partner max 1 µM)"
recorded_number = 0.901


Next compound, combination Emax to be filled in.
Lab note: measured combination Emax of Cc1c2c(nn1C)CSCc1cc(n(C)n1)CSc1cc(c3ccccc3c1)OCCCc1c(C(=O)O)n(C)c3c-2c(Cl)ccc13 [AZD5991] + CN(C)CCCOc1ccc(-c2ccc3ncc4c(c3c2)n(C2CCOCC2)c(=O)n4C)cn1 [AZD0156] (first compound max 1 µM, 7x7, partner max 1 µM) was 0.255

----------
Could you please report measured Bliss excess for the items listed next?
# Test system: LS-180 (Colorectal Carcinoma)
# experiment-notes: Bliss excess, mean over the matrix (fraction); higher = more synergy
One number for each entry.

[[record]]
compound = "CCN(CCO)CCCOc1ccc2c(Nc3cc(CC(=O)Nc4cccc(F)c4)[nH]n3)ncnc2c1 [AZD2811] + O=C(c1cc(Cc2n[nH]c(=O)c3ccccc23)ccc1F)N1CCN(C(=O)C2CC2)CC1 [Olaparib] (first compound max 1 µM, 7x7, partner max 10 µM)"
recorded_number = 0.0636

[[record]]
compound = "Cn1cnc2c(F)c(Nc3ccc(Br)cc3Cl)c(C(=O)NOCCO)cc21 [Selumetinib] + C=CCn1c(=O)c2cnc(Nc3ccc(N4CCN(C)CC4)cc3)nc2n1-c1cccc(C(C)(C)O)n1 [AZD1775] (first compound max 10 µM, partner max 1 µM)"
recorded_number = -0.0585

[[record]]
compound = "CC1(C)CCC(CN2CCN(c3ccc(C(=O)NS(=O)(=O)c4ccc(NCC5CCOCC5)c([N+](=O)[O-])c4)c(Oc4cnc5[nH]ccc5c4)c3)CC2)=C(c2ccc(Cl)cc2)C1 [Venetoclax] + Cn1cnc2c(F)c(Nc3ccc(Br)cc3Cl)c(C(=O)NOCCO)cc21 [Selumetinib] (first compound max 1 µM, 7x7, partner max 3 µM)"
recorded_number = 0.0538

[[record]]
compound = "C[C@@H]1COCCN1c1cc(C2([S@](C)(=N)=O)CC2)nc(-c2ccnc3[nH]ccc23)n1 [AZD6738] + C1CC(C1)(C(=O)[O-])C(=O)[O-].N.N.[Pt+2] [Carboplatin] (first compound max 10 µM, 7x7, partner max 10 µM)"
recorded_number = 0.0068

[[record]]
compound = "N#Cc1cnc(Nc2cc(NC[C@H]3CNCCO3)c(C(F)(F)F)cn2)cn1 [SRA737] + C=CCn1c(=O)c2cnc(Nc3ccc(N4CCN(C)CC4)cc3)nc2n1-c1cccc(C(C)(C)O)n1 [AZD1775] (first compound max 10 µM, partner max 1 µM)"
recorded_number = 0.0475


For every listed record, write down its Bliss excess.
1. CN(CCO)CC[C@H](CSc1ccccc1)Nc1ccc(S(=O)(=O)NC(=O)c2ccc(N3CCC([C@@H](O)c4ccccc4-c4ccc(Cl)cc4)CC3)cc2)cc1S(=O)(=O)C(F)(F)F [AZD4320] + CCN(CCO)CCCOc1ccc2c(Nc3cc(CC(=O)Nc4cccc(F)c4)[nH]n3)ncnc2c1 [AZD2811] (first compound max 1 µM, 7x7, partner max 1 µM)
2. Cc1c2c(nn1C)CSCc1cc(n(C)n1)CSc1cc(c3ccccc3c1)OCCCc1c(C(=O)O)n(C)c3c-2c(Cl)ccc13 [AZD5991] + C1CN(CCC1(C(=O)N[C@@H](CCO)C2=CC=C(C=C2)Cl)N)C3=NC=NC4=C3C=CN4 [Capivasertib] (first compound max 1 µM, 7x7, partner max 3 µM)
3. CN(CCO)CC[C@H](CSc1ccccc1)Nc1ccc(S(=O)(=O)NC(=O)c2ccc(N3CCC([C@@H](O)c4ccccc4-c4ccc(Cl)cc4)CC3)cc2)cc1S(=O)(=O)C(F)(F)F [AZD4320] + C1CN(CCC1(C(=O)N[C@@H](CCO)C2=CC=C(C=C2)Cl)N)C3=NC=NC4=C3C=CN4 [Capivasertib] (first compound max 1 µM, 7x7, partner max 3 µM)

Ans.
-0.0044
0.0195
-0.0389

For every listed record, write down its Bliss excess.
1. COc1cccc(OCCCN)c1-c1cc(Nc2cnc(C#N)cn2)n[nH]1 [Prexasertib] + O=C(c1cc(Cc2n[nH]c(=O)c3ccccc23)ccc1F)N1CCN(C(=O)C2CC2)CC1 [Olaparib] (first compound max 1 µM, 7x7, partner max 10 µM)
2. NC1(C(=O)N[C@@H](CCO)c2ccc(Cl)cc2)CCN(c2ncnc3[nH]ccc23)CC1 [Capivasertib] + CC(=O)c1c(C)c2cnc(Nc3ccc(N4CCNCC4)cn3)nc2n(C2CCCC2)c1=O [Palbociclib] (first compound max 10 µM, 7x7, partner max 10 µM)
3. COc1cccc(OCCCN)c1-c1cc(Nc2cnc(C#N)cn2)n[nH]1 [Prexasertib] + C=CCn1c(=O)c2cnc(Nc3ccc(N4CCN(C)CC4)cc3)nc2n1-c1cccc(C(C)(C)O)n1 [AZD1775] (first compound max 1 µM, partner max 1 µM)
4. O=C(c1cc(Cc2n[nH]c(=O)c3ccccc23)ccc1F)N1CCN(C(=O)C2CC2)CC1 [Olaparib] + CN(CC[C@H](CSC1=CC=CC=C1)NC2=C(C=C(C=C2)S(=O)(=O)NC(=O)C3=CC=C(C=C3)N4CCC(CC4)[C@H](C5=CC=CC=C5C6=CC=C(C=C6)Cl)O)S(=O)(=O)C(F)(F)F)CCO [AZD4320] (first compound max 10 µM, 7x7, partner max 1 µM)
5. COc1cccc(OCCCN)c1-c1cc(Nc2cnc(C#N)cn2)n[nH]1 [Prexasertib] + CCc1c2c(nc3ccc(O)cc13)-c1cc3c(c(=O)n1C2)COC(=O)[C@]3(O)CC [SN-38] (first compound max 1 µM, 7x7, partner max 0.3 µM)

Ans.
[-0.0348, 0.0189, 0.184, -0.0552, -0.0629]

----------
Could you please report measured Bliss excess for the items listed next?
# System: COLO-205 (Colorectal Carcinoma)
# experiment-notes: Bliss excess, mean over the matrix (fraction); higher = more synergy
Numbers only.

[[record]]
molecule = "Cc1c2c(nn1C)CSCc1cc(n(C)n1)CSc1cc(c3ccccc3c1)OCCCc1c(C(=O)O)n(C)c3c-2c(Cl)ccc13 [AZD5991] + C[C@@H](Nc1cc(F)cc(F)c1)c1cc(C(=O)N(C)C)cc2c(=O)cc(N3CCOCC3)oc12 [AZD8186] (first compound max 1 µM, 7x7, partner max 3 µM)"
measurement_target = "COLO-205 (Colorectal Carcinoma)"
value_type = "Bliss excess"
recorded_number = -0.0444


Next molecule, Bliss excess to be filled in.
Lab note: measured Bliss excess of NC1(C(=O)N[C@@H](CCO)c2ccc(Cl)cc2)CCN(c2ncnc3[nH]ccc23)CC1 [Capivasertib] + CCN(CCO)CCCOc1ccc2c(Nc3cc(CC(=O)Nc4cccc(F)c4)[nH]n3)ncnc2c1 [AZD2811] (first compound max 10 µM, 7x7, partner max 1 µM) was -0.0551
